Give shrunken log2 fold change for every item shown.
- System: Escherichia coli TOP10
- EXPERIMENT SUMMARY: shrunken log2 fold change of peptide-encoding DNA abundance (4.5 h post-induction vs induction); higher = less antimicrobial activity (less host growth inhibition)
- EXPERIMENTAL CONDITIONS: time post-induction: 4.5 h; library: site-saturation at positions 5, 18, 19, 20
Give bare numbers.

Here is how some sequences turned out for shrunken log2 fold change.
>>> df
            sequence_chain  experimental_value
0  RRIRMRPPRLPRPRPRPRQHPRP                0.47
1  RRIRWRPPRLPRPRPRPDCHPRP              -0.346
2  RRIRCRPPRLPRPRPRPDMAPRP              -0.145
3  RRIRARPPRLPRPRPRPCEMPRP               0.345
4  RRIRSRPPRLPRPRPRPICNPRP             -0.0128

List the reported shrunken log2 fold change of each sequence below.
1. RRIRDRPPRLPRPRPRPGPSPRP
2. RRIRYRPPRLPRPRPRPEKCPRP
3. RRIRHRPPRLPRPRPRPDNAPRP
4. RRIRNRPPRLPRPRPRPHICPRP
5. RRIRRRPPRLPRPRPRPPAEPRP
6. RRIRVRPPRLPRPRPRPPHNPRP
7. RRIRGRPPRLPRPRPRPPKPPRP
8. RRIRIRPPRLPRPRPRPQPTPRP

1. -0.0742
2. -0.26
3. -0.34
4. -0.0994
5. 0.851
6. 0.154
7. 0.919
8. 0.115

List the reported shrunken log2 fold change of each sequence below.
1. RRIRQRPPRLPRPRPRPQQWPRP
2. RRIRERPPRLPRPRPRPMEGPRP

0.201
0.00131

====

- Test system: Escherichia coli TOP10
- EXPERIMENT SUMMARY: shrunken log2 fold change of peptide-encoding DNA abundance (4.5 h post-induction vs induction); higher = less antimicrobial activity (less host growth inhibition)
- EXPERIMENTAL CONDITIONS: time post-induction: 4.5 h; library: site-saturation at positions 5, 18, 19, 20
# if value of shrunken log2 fold change reaches 0.007, tag criterion met; if it stays below, tag criterion not met

>>> df
            sequence_chain       answer_label
0  RRIRNRPPRLPRPRPRPRDTPRP  criterion not met
1  RRIRKRPPRLPRPRPRPFFHPRP      criterion met
2  RRIRKRPPRLPRPRPRPCAAPRP      criterion met
3  RRIRWRPPRLPRPRPRPPIIPRP  criterion not met
4  RRIRSRPPRLPRPRPRPHSPPRP      criterion met

Is reported shrunken log2 fold change greater than or equal to 0.007 here: RRIRMRPPRLPRPRPRPIYTPRP
criterion not met

Can you handle RRIRCRPPRLPRPRPRPRQWPRP next?
criterion not met

Can you handle RRIRLRPPRLPRPRPRPNPPPRP next?
criterion met

Can you handle RRIRCRPPRLPRPRPRPSISPRP next?
criterion not met

Can you handle RRIRPRPPRLPRPRPRPHYCPRP next?
criterion not met

Can you handle RRIRFRPPRLPRPRPRPSVWPRP next?
criterion not met

Can you handle RRIRYRPPRLPRPRPRPGPPPRP next?
criterion met

====

- Test system: Escherichia coli TOP10
- EXPERIMENT SUMMARY: shrunken log2 fold change of peptide-encoding DNA abundance (4.5 h post-induction vs induction); higher = less antimicrobial activity (less host growth inhibition)
- EXPERIMENTAL CONDITIONS: time post-induction: 4.5 h; library: site-saturation at positions 5, 18, 19, 20
# if value of shrunken log2 fold change reaches -0.03, tag condition met; if it stays below, tag condition not met

>>> df
            sequence_chain       answer_label
0  RRIRVRPPRLPRPRPRPSLNPRP  condition not met
1  RRIRFRPPRLPRPRPRPVTYPRP  condition not met
2  RRIRDRPPRLPRPRPRPQAKPRP      condition met
3  RRIRSRPPRLPRPRPRPTVIPRP  condition not met
4  RRIRMRPPRLPRPRPRPLTHPRP      condition met
5  RRIRFRPPRLPRPRPRPCGNPRP  condition not met
6  RRIRSRPPRLPRPRPRPHEFPRP  condition not met
7  RRIRTRPPRLPRPRPRPALAPRP      condition met
8  RRIRSRPPRLPRPRPRPPLWPRP      condition met
9  RRIRARPPRLPRPRPRPEYKPRP      condition met

Is reported shrunken log2 fold change greater than or equal to -0.03 here: RRIRRRPPRLPRPRPRPGLWPRP
condition met

Can you handle RRIRGRPPRLPRPRPRPDITPRP next?
condition met

Can you handle RRIRCRPPRLPRPRPRPGNPPRP next?
condition not met

Can you handle RRIRRRPPRLPRPRPRPLVAPRP next?
condition met

Can you handle RRIRYRPPRLPRPRPRPASIPRP next?
condition not met

====

- Tested on: Escherichia coli TOP10
- EXPERIMENT SUMMARY: shrunken log2 fold change of peptide-encoding DNA abundance (4.5 h post-induction vs induction); higher = less antimicrobial activity (less host growth inhibition)
- EXPERIMENTAL CONDITIONS: time post-induction: 4.5 h; library: site-saturation at positions 5, 18, 19, 20
METRIC NAME: shrunken log2 fold change
Answers are plain numbers.

>>> print(df.to_string())
            sequence_chain                metric_name  experimental_value
0  RRIRFRPPRLPRPRPRPIVAPRP  shrunken log2 fold change              -0.112
1  RRIRARPPRLPRPRPRPEVLPRP  shrunken log2 fold change               0.709
2  RRIRERPPRLPRPRPRPMSGPRP  shrunken log2 fold change              0.0249
3  RRIRKRPPRLPRPRPRPRNMPRP  shrunken log2 fold change              -0.162
4  RRIRWRPPRLPRPRPRPLSTPRP  shrunken log2 fold change               0.383
5  RRIRQRPPRLPRPRPRPWMRPRP  shrunken log2 fold change               0.131

List the reported shrunken log2 fold change of each sequence below.
1. RRIRNRPPRLPRPRPRPEDFPRP
2. RRIRRRPPRLPRPRPRPSRKPRP
3. RRIRIRPPRLPRPRPRPVLDPRP
4. RRIRCRPPRLPRPRPRPRTEPRP

1. 0.0401
2. 0.129
3. 0.0135
4. 0.0022

====

- Tested on: Escherichia coli TOP10
- EXPERIMENT SUMMARY: shrunken log2 fold change of peptide-encoding DNA abundance (4.5 h post-induction vs induction); higher = less antimicrobial activity (less host growth inhibition)
- EXPERIMENTAL CONDITIONS: time post-induction: 4.5 h; library: site-saturation at positions 5, 18, 19, 20
METRIC NAME: shrunken log2 fold change
One number for each entry.

>>> df
            sequence_chain                metric_name  experimental_value
0  RRIRCRPPRLPRPRPRPCENPRP  shrunken log2 fold change              0.0291
1  RRIRCRPPRLPRPRPRPIWRPRP  shrunken log2 fold change               0.285
2  RRIRPRPPRLPRPRPRPSMGPRP  shrunken log2 fold change              -0.156
3  RRIRERPPRLPRPRPRPYMHPRP  shrunken log2 fold change              -0.232

List the reported shrunken log2 fold change of each sequence below.
1. RRIRWRPPRLPRPRPRPFNQPRP
2. RRIRPRPPRLPRPRPRPCRQPRP

[-0.494, 0.111]

List the reported shrunken log2 fold change of each sequence below.
1. RRIRYRPPRLPRPRPRPVYLPRP
2. RRIRYRPPRLPRPRPRPNWAPRP
3. RRIRQRPPRLPRPRPRPIFEPRP
4. RRIRIRPPRLPRPRPRPWNYPRP
5. RRIRRRPPRLPRPRPRPFIVPRP
6. RRIRCRPPRLPRPRPRPRMYPRP
7. RRIRNRPPRLPRPRPRPTNIPRP
8. RRIRLRPPRLPRPRPRPDDCPRP

1: 0.00668; 2: -0.267; 3: -0.224; 4: 0.0299; 5: -0.0553; 6: -0.562; 7: -0.312; 8: 0.014

Which shrunken log2 fold change is reported for this sequence? RRIRMRPPRLPRPRPRPYEQPRP
-0.222

====

- System: Escherichia coli TOP10;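 also: peptides expressed intracellularly from a pBAD plasmid library in pooled LB shake-flask culture, induced with 0.3% L-arabinose, DNA abundance read by NGS, three biological replicates, DESeq2 with apeglm shrinkage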
- EXPERIMENT SUMMARY: shrunken log2 fold change of peptide-encoding DNA abundance (4.5 h post-induction vs induction); higher = less antimicrobial activity (less host growth inhibition)
- EXPERIMENTAL CONDITIONS: time post-induction: 4.5 h; library: site-saturation at positions 5, 18, 19, 20
METRIC NAME: shrunken log2 fold change

In [3]: df
Out[3]:
            sequence_chain  experimental_value
0  RRIRWRPPRLPRPRPRPGNPPRP              -0.139
1  RRIRWRPPRLPRPRPRPLFKPRP              -0.242
2  RRIRTRPPRLPRPRPRPSFNPRP              -0.507
3  RRIRTRPPRLPRPRPRPKWLPRP               0.247
4  RRIRWRPPRLPRPRPRPSRIPRP              -0.338

List the reported shrunken log2 fold change of each sequence below.
1. RRIRWRPPRLPRPRPRPVRMPRP
2. RRIRMRPPRLPRPRPRPKSCPRP
3. RRIRGRPPRLPRPRPRPKSLPRP

-0.0133
0.839
0.413
